Provide the recorded EC50 for the entries that follow.
target or system: GLP-1 Receptor (Homo sapiens, UniProt P43220)
Sequence (P43220 24-463, species assumed): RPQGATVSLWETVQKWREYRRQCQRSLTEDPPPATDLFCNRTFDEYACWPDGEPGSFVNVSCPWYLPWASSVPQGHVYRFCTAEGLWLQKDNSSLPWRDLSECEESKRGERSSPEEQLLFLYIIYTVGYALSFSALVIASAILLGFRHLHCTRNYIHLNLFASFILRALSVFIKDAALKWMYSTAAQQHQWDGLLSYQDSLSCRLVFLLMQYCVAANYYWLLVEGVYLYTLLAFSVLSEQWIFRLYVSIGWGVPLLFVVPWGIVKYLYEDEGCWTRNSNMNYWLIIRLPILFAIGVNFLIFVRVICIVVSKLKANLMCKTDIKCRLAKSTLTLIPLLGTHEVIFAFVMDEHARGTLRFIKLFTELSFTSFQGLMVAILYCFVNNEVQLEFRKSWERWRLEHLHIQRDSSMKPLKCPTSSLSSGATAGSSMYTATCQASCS
procedure text: GLP-1R agonist cAMP stimulation assay (HEK293/GLP1R/CRE-LUC cells, cAMP dynamic 2 Kit)
stated conditions: HEK293/CRE-Luc cell line stably expressing the GLP-1 Receptor, 30 min at 37° C.
Text: Activation of GLP-1 receptor is known to stimulate cyclic AMP (cAMP) production in cells which indicates primary coupling to the Gαs subunit of the G protein heterotrimeric complex. […] To optimize functional activity directed toward Gαs coupling, a HEK293/CRE-Luc cell line developed by HDB stably expressing the GLP-1 Receptor was used. […]

May I ask what EC50 has been recorded for N#Cc1ccc(COc2cccc(C3CCN(Cc4nc5cc(-c6nnc(C(F)(F)F)[nH]6)cnc5n4C[C@@H]4CCO4)CC3)n2)c(F)c1 [Compound 325a] ?
12 pM

Could you tell me which EC50 is on file for N#Cc1ccc(COc2cccc(N3CCN(Cc4nc5cc(-c6nnc(C(F)(F)F)[nH]6)cnc5n4C[C@@H]4CCO4)CC3)n2)c(F)c1 [Compound 495a] ?
8.4 pM

Any idea what its EC50 is? The compound is N#Cc1ccc(COc2cc(C3CCN(Cc4nc5cc(-c6nnc(C(F)(F)F)[nH]6)nnc5n4C[C@@H]4CCO4)CC3)ccc2F)c(F)c1 [Compound 521a]
510 pM

Reported EC50 for C[C@]1(c2ccc(Cl)cn2)Oc2cccc(C3CCN(Cc4nc5cc(C(=O)O)nnc5n4C[C@@H]4CCO4)CC3)c2O1 [Compound 464a] : what is it?
760 pM

Reported EC50 for CC1(c2ccc(Cl)cc2F)Oc2cccc(C3CCN(Cc4nc5cc(-c6nnc(C(F)(F)F)[nH]6)ccc5n4C[C@@H]4CCO4)CC3)c2O1 (single isomer, unassigned) [Compound 229b] : what is it?
8900 pM

Find the recorded EC50 belonging to Fc1cc(Cl)ccc1COc1cccc(N2CCN(Cc3nc4cc(-c5nnc(C(F)(F)F)[nH]5)cnc4n3C[C@@H]3CCO3)CC2)n1 [Compound 494a] and report it.
13 pM

Look at this compound and give its reported EC50. Fc1cc(Cl)ccc1COc1cccc(C2CCN(Cc3nc4cc(-c5nnc(C(F)(F)F)[nH]5)ncc4n3C[C@@H]3CCO3)CC2)n1 [Compound 435a]
18 pM

Give the measured EC50 of O=c1[nH]c(-c2cnc3c(c2)nc(CN2CC=C(c4ccc(F)c(OCc5ccc(Cl)cc5F)c4)CC2)n3C[C@@H]2CCO2)no1 [Compound 293a] .
2800 pM

So what's the measured EC50 for this one? CC1(c2ccc(Cl)cc2F)Oc2cccc(C3CCN(Cc4nc5cc(-c6nnc(C(F)(F)F)[nH]6)cnc5n4C[C@@H]4CCO4)CC3)c2O1 (single isomer, unassigned) [Compound 224b]
1700 pM

###

target or system: GLP-1 Receptor (Homo sapiens)
procedure text: GLP-1R agonist cAMP stimulation assay (HEK293/GLP1R/CRE-LUC cells, cAMP dynamic 2 Kit)
stated conditions: HEK293/CRE-Luc cell line stably expressing the GLP-1 Receptor, 30 min at 37° C.
assay metric: log10 of EC50 (log10 of the value in nM)
Friendly reminder: values = log10 of EC50, unit nM.

Give its log10 of EC50 value. Item: C[C@]1(c2ccc(Cl)cn2)Oc2cccc(C3CCN(Cc4nc5cc(-c6nnc(C(F)(F)F)[nH]6)nnc5n4C[C@@H]4CCO4)CC3)c2O1 [Compound 462a]
-1.35

Reported log10 of EC50, compound Cc1cnc(-c2ccc3c(c2)nc(CN2CCC(c4cccc5c4O[C@@](C)(c4ccc(Cl)cc4F)O5)CC2)n3C[C@@H]2CCO2)nc1 [Compound 236a] : ____
0.30

# input compound: CO[C@@H](C)Cn1c(CN2CCC(c3cccc4c3O[C@@](C)(c3ccc(Cl)cc3F)O4)CC2)nc2cc(-c3nnc(C(F)(F)F)[nH]3)ncc21 [Compound 420a] ; wanted: its log10 of EC50
-0.68

Which measured log10 of EC50 value corresponds to O=S1(=O)CCCN1c1ccc2c(c1)nc(CN1CCC(c3cccc(OCc4ccc(Cl)cc4F)n3)CC1)n2C[C@@H]1CCO1 [Compound 118a] ?
1.00

Request the reported log10 of EC50 associated with Fc1cc(Cl)ccc1COc1ccc(F)c(N2CCN(Cc3nc4cc(-c5nnc(C(F)(F)F)[nH]5)ncc4n3C[C@@H]3CCO3)CC2)n1 [Compound 501a]
-1.42

Which measured log10 of EC50 value corresponds to Fc1cc(Cl)ccc1COc1nc(C2CCN(Cc3nc4cc(-c5nnc(C(F)(F)F)[nH]5)nnc4n3C[C@@H]3CCO3)CC2)ncc1F [Compound 510a] ?
-0.80

Would you kindly share the measured log10 of EC50 for CC1(c2ccc(Cl)cc2F)Oc2cccc(C3CCN(Cc4nc5cc(-c6noc(=O)[nH]6)ccc5n4C[C@@H]4CCO4)CC3)c2O1 (single isomer, unassigned) [Compound 239c] ?
-0.26

Reported log10 of EC50, compound N#Cc1ccc(COc2cc(C3=CCN(Cc4nc5cc(-c6nnc(C(F)(F)F)[nH]6)cnc5n4C[C@@H]4CCO4)CC3)ccc2F)c(F)c1 [Compound 296a] : ____
-0.32
